Hello, the source for this data is paper PMC10778976, in case you need it.

System: AMPK in U2OS cells
Experiment: AMPK activity in anti-α1/-α2 immunoprecipitates from treated U2OS cells
Format: cell-based, human
Conditions: Homo sapiens; U2OS cells treated with inhibitor and MK-8722; read-out: EC50, activation of AMPK activity in immunoprecipitates
From the text: T-Rex U2OS cells carrying a Flp Recombinase Target (FRT) site were generated as described previously and grown in Dulbecco’s Modified Eagle’s Medium (DMEM) supplemented with 10% (v/v) FBS and 1% (v/v) penicillin/streptomycin. […] AMPK assays measured the transfer of radioactivity from labelled ATP to a peptide substrate, which was separated from unreacted ATP by binding to P81 paper. […]
reported_metric: EC50

I would be grateful if you could share the reported EC50 for CCc1ccccc1C(=O)Nc1n[nH]c2c(C)c(F)c(C3C(C#N)=C(C)N(C)C(C)=C3C#N)cc12 .
84 nM
